Target: human TGR5 (h-TGR5) (Homo sapiens, UniProt Q8TDU6)
Construct: expressed in transfected cells
Sequence (Q8TDU6 1-330): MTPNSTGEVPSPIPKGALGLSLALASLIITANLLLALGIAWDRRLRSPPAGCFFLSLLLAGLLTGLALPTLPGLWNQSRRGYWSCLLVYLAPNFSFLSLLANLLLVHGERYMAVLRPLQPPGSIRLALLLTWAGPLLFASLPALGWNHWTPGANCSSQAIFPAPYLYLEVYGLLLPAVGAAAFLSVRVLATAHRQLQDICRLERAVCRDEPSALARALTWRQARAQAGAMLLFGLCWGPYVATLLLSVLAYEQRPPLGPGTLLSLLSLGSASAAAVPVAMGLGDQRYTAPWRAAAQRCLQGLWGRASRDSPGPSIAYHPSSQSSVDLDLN
Assay: TGR5/CRE-Luciferiase Assay (HEK 293 hTGR5/CRE-Luc cells)
Assay type: cell-based
Conditions: h-TGR5 CRE-Luc EC50, Table 1; read-out: CRE-Luc (EC50)
Readout: EC50

Some compounds with recorded EC50:
| Smiles data | Test value |
| --- | --- |
| CC(C)(c1ccc(Cl)c(Cl)c1)c1cnc(SCc2ccc(F)c(CO)c2)n1-c1ccc(F)cc1 | 0.1 to 1 µM |
| CCN(CC)CCOc1ccc(CSc2ncc(C(C)(C)c3ccc(Cl)c(Cl)c3)n2-c2ccc(F)cc2)cc1S(N)(=O)=O | 0.1 to 1 µM |
| CC(C)(c1ccc(S(C)(=O)=O)cc1)c1cnc(SCc2ccc(S(=O)(=O)NC(=O)NN3CCCC3)cc2Cl)n1-c1ccc(F)cn1 | 1 to 10 µM |

For the record `CC(C)(c1ccc(Cl)c(Cl)c1)c1cnc(SCc2ccc(F)c(C(=O)NCCN3CCOCC3)c2)n1-c1ccc(F)cc1` , what value of EC50 is listed for human TGR5 (h-TGR5) (Homo sapiens, UniProt Q8TDU6)?
0.1 to 1 µM

# value lookup — system human TGR5 (h-TGR5) (Homo sapiens, UniProt Q8TDU6), readout EC50, item `CC(C)(c1ccc(Cl)c(Cl)c1)c1c(-c2ccccc2)nc(SCc2c(F)cccc2Cl)n1-c1ccc(F)cc1`
1 to 10 µM

Form entry - test system: human TGR5 (h-TGR5) (Homo sapiens, UniProt Q8TDU6); read-out: EC50; compound: `CC(C)(c1ccc(F)c(F)c1)c1cnc(SCc2cc(C(=O)O)ccc2Cl)n1-c1ccc(F)cc1`
0.1 to 1 µM

# get_value(readout= EC50, system= human TGR5 (h-TGR5) (Homo sapiens, UniProt Q8TDU6)) for `CC(C)(c1ccc(S(N)(=O)=O)c(Cl)c1)c1cnc(SCc2ccc(F)cc2Cl)n1-c1ccc(F)cc1`
< 0.1 µM

Return EC50 measured with human TGR5 (h-TGR5) (Homo sapiens, UniProt Q8TDU6) given this compound: `CC(C)(c1ccc(Cl)c(Cl)c1)c1cnc(SCc2ccc(Cl)c(-c3nnn[nH]3)c2)n1-c1cccc(F)c1`
0.1 to 1 µM

====

target: human TGR5 (h-TGR5) (Homo sapiens, UniProt Q8TDU6); construct: expressed in transfected cells; test: TGR5/CRE-Luciferiase Assay (HEK 293 hTGR5/CRE-Luc cells); assay type: cell-based; settings: h-TGR5 CRE-Luc EC50, Table 1; read-out: CRE-Luc (EC50)
Readout: EC50

Here are 10 compounds together with their reported answers.
| Compound | EC50 |
| --- | --- |
| CC(C)(c1ccc(F)c(C#N)c1)c1cnc(SCc2ccc(S(=O)(=O)NC(=O)NN3CCCC3)cc2Cl)n1-c1ccc(F)cc1 | 100 to 1000 nM |
| COc1ccc(C(C)(C)c2cnc(SCc3cc(F)cc(Cl)c3)n2-c2ccc(F)cc2)cc1OC | < 100 nM |
| CC(C)(c1ccc(Cl)c(O)c1)c1cnc(SCc2c(F)cc(C(=O)O)cc2F)n1-c1ccc(F)cc1 | 100 to 1000 nM |
| COc1ccc(C(C)(C)c2cnc(SCc3ccc(F)cc3Cl)n2-c2ccc(F)cc2)cc1Cl | < 100 nM |
| CC(C)(c1ccc(O)c(O)c1)c1cnc(SCc2ccc(F)cc2Cl)n1-c1ccc(F)cc1 | < 100 nM |
| CC(C)(c1ccc(Cl)c(Cl)c1)c1cnc(C(O)CCc2ccc(Cl)cc2Cl)n1-c1ccc(F)cc1 (centres unmarked) | 1000 to 10000 nM |
| CC(C)(c1ccc(Cl)c(Cl)c1)c1cnc(SCc2c(F)cccc2Cl)n1-c1ccc(F)c(F)c1 | < 100 nM |
| COc1cc(C(C)(C)c2cnc(SCc3c(F)cc(S(=O)(=O)NC(=O)NN4CCOCC4)cc3F)n2-c2ccc(F)cc2)ccc1Cl | < 100 nM |
| COc1cc(C(C)(C)c2cnc(SCc3ccc(C(=O)O)cc3F)n2-c2ccc(F)cc2)ccc1Cl | < 100 nM |
| CC(C)(C(=O)O)c1cc(CSc2ncc(C(C)(C)c3ccc(Cl)c(Cl)c3)n2-c2ccc(F)cc2)ccc1F | 1000 to 10000 nM |

Which measured EC50 value corresponds to `COc1cc(C(C)(C)c2cnc(SCc3ccc(S(=O)(=O)NC(=O)Nn4cccc4)cc3Cl)n2-c2ccc(F)cc2)ccc1Cl` ?
100 to 1000 nM

# lookup: EC50 of `CC(C)(c1ccc(F)c(F)c1)c1cnc(S(=O)(=O)Cc2ccc(F)cc2Cl)n1-c1ccc(F)cc1`
1000 to 10000 nM

Could you share which EC50 value was measured for `CC(C)(c1ccc(C(N)=O)c(Cl)c1)c1cnc(SCc2ccc(F)cc2Cl)n1-c1ccc(F)cc1` ?
100 to 1000 nM

Return reported EC50; argument: `COc1cc(-n2c(C(C)(C)c3ccc(S(N)(=O)=O)c(Cl)c3)cnc2SCc2c(F)cc(C(=O)O)cc2F)ccc1F`
< 100 nM

EC50 lookup needed for `COc1cc(C(C)(C)c2cnc(SCc3c(F)cc(OCC/C=N/NC(=N)N)cc3Cl)n2-c2ccc(F)cc2)ccc1Cl` , thanks.
< 100 nM

Query (compound): `COc1ccc(-c2cnc(SCc3ccc(F)cc3Cl)n2-c2ccc(F)cc2)cc1OC` ; field requested: EC50
1000 to 10000 nM

What value of EC50 has been reported for the following compound? `COc1cc(C(C)(C)c2cnc(SCc3c(F)cc(OCCNC(=N)NC(=N)N)cc3F)n2-c2ccc(F)cc2)ccc1Cl`
< 100 nM

====

Molecular target: human TGR5 (h-TGR5) (Homo sapiens, UniProt Q8TDU6)
Construct: expressed in transfected cells
Sequence (Q8TDU6 1-330): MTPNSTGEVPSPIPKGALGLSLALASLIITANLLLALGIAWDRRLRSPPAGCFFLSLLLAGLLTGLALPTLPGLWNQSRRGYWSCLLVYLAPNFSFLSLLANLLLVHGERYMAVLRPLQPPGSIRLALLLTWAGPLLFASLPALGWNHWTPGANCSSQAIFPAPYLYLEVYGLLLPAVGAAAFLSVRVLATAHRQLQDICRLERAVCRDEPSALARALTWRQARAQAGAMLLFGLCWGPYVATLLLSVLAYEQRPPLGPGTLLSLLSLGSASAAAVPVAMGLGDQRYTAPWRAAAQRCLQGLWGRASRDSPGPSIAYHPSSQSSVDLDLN
Assay: TGR5/CRE-Luciferiase Assay (HEK 293 hTGR5/CRE-Luc cells)
Type: cell-based
Details: h-TGR5 CRE-Luc EC50, Table 1; read-out: CRE-Luc (EC50)
pEC50: −log10 of the molar value.
Readout: pEC50

Reported pEC50 for `CC(C)(c1ccc(S(N)(=O)=O)c(Cl)c1)c1cnc(SCc2ccc(S(=O)(=O)NC(=O)NN3CCOCC3)cc2Cl)n1-c1ccc(F)c(F)c1` : what is it?
6.00 to 7.00

Quick one: pEC50 of `CC(C)(c1ccc(Cl)c(Cl)c1)c1cnc(OCC2CCN(c3nnn[nH]3)CC2)n1-c1ccc(F)cc1` ?
5.00 to 6.00

Name the recorded pEC50 for `CC(C)(c1ccc(Cl)c(Cl)c1)c1cnc(SCc2c(F)cccc2Cl)n1-c1ccc(Cl)cc1F` .
6.00 to 7.00

I would be grateful if you could share the reported pEC50 for `CC(C)(c1ccc(F)c(F)c1)c1cnc(SCc2ccc(S(=O)(=O)NC(=O)NN3CCCC3)cc2Cl)n1-c1ccc(F)cc1` .
6.00 to 7.00

GET /values?readout=pEC50&item= `CC(C)(c1ccc(F)c(F)c1)c1cnc(SCC2CCN(C(=O)NN3CCCC3)CC2)n1-c1ccc(F)cc1`
6.00 to 7.00

Item `COc1cc(C(C)(C)c2cnc(SCc3c(F)cc(C(=O)N[C@@H](CCCN)C(=O)O)cc3Cl)n2-c2ccc(F)cc2)ccc1Cl` has what recorded pEC50?
> 7.00

For the compound shown here, `COc1cc(C(C)(C)c2cnc(SCc3ccc(CCCNC(=N)N)c(C(=O)O)c3)n2-c2ccc(F)cc2)ccc1Cl` , give the reported pEC50.
> 7.00

May I ask what pEC50 has been recorded for `CC(C)(c1ccc(Cl)c(Cl)c1)c1cnc(CSc2ccc(Cl)c(Cl)c2)n1-c1ccc(F)cc1` ?
6.00 to 7.00
